meta.source: patent US10202593B2

Km for assorted molecules
system: LPETG (Abz-LPETGK(Dnp)-CONH2); experiment: In vitro sortase kinetics HPLC assay, LPETG substrate; assay type: biochemical; conditions: Example 5 variants; substrate wt (LPETG); read-out: Avg KM

molecule="eSrtA(2A-6): round 6 consensus variant targeting LAETG; kinetics close to 2A.6A (protein) QAKPQIPKDKSKVAGYIEIPDADIKEPVYPGPATREQLNRGVSFHEENESLDDQNISIAGHTFIDRPNYQFTNLKAAKVGSMVYFKVGNETRKYKMTSIRNVRPTAVEVLDEQKGKDKQLTLVTCDDYNEETGVWETRKIFVATEVK" readout=Km value_measured="3400 µM"

The reported Km of the molecule eSrtA(4S-6): round 6 consensus variant targeting LPESG (protein) QAKPQIPKDKSKVAGYIEIPDADIKEPVYPGPATREQLDRGVSFVEENESLDDQNISISGHTAIDRPNYQFTNLGAAKKGSMVYFKVGNETRKYKMTSIRNVKPTAVEVLDEQKGKDKQLTLVTCDDYNVETGVWETRKIFVATEVK was 1040 µM

The reported Km of the molecule eSrtA(4S-3): round 3 LPESG clone: eSrtA + N98S A104T A118T F122S D124G K134R K173E K177E I182V (protein) QAKPQIPKDKSKVAGYIEIPDADIKEPVYPGPATREQLSRGVSFTEENESLDDQNISITGHTSIGRPNYQFTNLRAAKKGSMVYFKVGNETRKYKMTSIRNVKPTAVEVLDEQEGKDEQLTLVTCDDYNEETGVWETRKIFVATEVK was 3390 µM

The reported Km of the molecule eSrtA(2A-3.5) (protein) QAKPQIPKDKSKVAGYIEIPDADIKEPVYPGPATREQLNRGVSFAEENESLDDQNISIAGHTFIDRPNYQFTNLKAAKKGSMVYFKVGNETRKYKMTSIRNVRPTAVEILDEQKGKDKQLTLFTCDDYNEETGVWETRKIFVATEVK was 3750 µM

The reported Km of the molecule eSrtA(2A-9): P94R, S102C, A104H, E105D, K138P, K152I, N160K, K162H, T164N, D165A, K173E, I182V, K190E, T196S (protein) QAKPQIPKDKSKVAGYIEIPDADIKEPVYPGPATREQLNRGVCFHDENESLDDQNISIAGHTFIDRPNYQFTNLKAAKPGSMVYFKVGNETRIYKMTSIRKVHPNAVEVLDEQEGKDKQLTLVTCDDYNEETGVWESRKIFVATEVK was 1270 µM

The reported Km of the molecule eSrtA(4S-5): 5mut + N98D A104V A118T F122A K134R I182V (protein) QAKPQIPKDKSKVAGYIEIPDADIKEPVYPGPATREQLDRGVSFVEENESLDDQNISITGHTAIDRPNYQFTNLRAAKKGSMVYFKVGNETRKYKMTSIRNVKPTAVEVLDEQKGKDKQLTLVTCDDYNEETGVWETRKIFVATEVK was 11.7 µM

The reported Km of the molecule eSrtA(4S-4): 5mut + A104V A118T F122S I182V (protein) QAKPQIPKDKSKVAGYIEIPDADIKEPVYPGPATREQLNRGVSFVEENESLDDQNISITGHTSIDRPNYQFTNLKAAKKGSMVYFKVGNETRKYKMTSIRNVKPTAVEVLDEQKGKDKQLTLVTCDDYNEETGVWETRKIFVATEVK was 491 µM
